Target: E3 ubiquitin-protein ligase XIAP (Homo sapiens) (UniProt P98170)
Sequence (P98170 whole entry, looked up): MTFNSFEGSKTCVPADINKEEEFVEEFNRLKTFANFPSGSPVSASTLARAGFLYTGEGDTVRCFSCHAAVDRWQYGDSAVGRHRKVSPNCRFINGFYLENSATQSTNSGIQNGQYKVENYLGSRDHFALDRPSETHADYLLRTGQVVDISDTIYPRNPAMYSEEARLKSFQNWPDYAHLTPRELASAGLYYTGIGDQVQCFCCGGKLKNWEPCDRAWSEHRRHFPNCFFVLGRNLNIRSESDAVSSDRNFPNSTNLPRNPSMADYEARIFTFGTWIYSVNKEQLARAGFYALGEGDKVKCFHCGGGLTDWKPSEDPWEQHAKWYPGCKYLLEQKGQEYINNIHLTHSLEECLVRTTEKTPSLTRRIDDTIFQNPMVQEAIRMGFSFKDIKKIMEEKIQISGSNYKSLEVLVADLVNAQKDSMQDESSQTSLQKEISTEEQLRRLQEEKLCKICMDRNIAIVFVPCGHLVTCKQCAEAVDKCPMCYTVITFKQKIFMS
Assay: XIAP binders, primary screen, biophysical, small-molecule microarray, fluorescence 635 nm (AID 1181);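 note: score merges 667 nm emission and signal to noise over triplicate slides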
Details: small-molecule microarray binding, higher = more signal
Assign class by composite z-score: not lower than 0.2 means Y; lower than 0.2 means N.

Task: // inclusive: composite z-score at least 0.2? input: `C=C(COC)/C(=C/C[C@@H](OC(=O)c1ccncc1)c1ccc(OCCO)cc1)c1cnc2ccccc2c1`
Result: N

---

Test system: Sonic hedgehog protein (Shh)
Experiment: small-molecule binders of Shh protein, primary screen, biochemical, small-molecule microarray, 635/667 nm fluorescence (AID 1151);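 note: Shh protein binding to compounds spotted on small-molecule microarray slides; score combines spot fluorescence intensity with signal-to-noise across triplicate slides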
Settings: small-molecule microarray binding, 635 nm fluorescence; higher = more signal
reportedEndpoint: composite z-score
One number for each entry.

Consider the worked cases shown below.
C=CCN1C(=O)[C@@]2(O[C@@H](CCO)[C@H]([Si](C)(C)c3ccc(OC)cc3)[C@H]2C)c2cc(N3C(=O)c4ccccc4Oc4ccccc43)ccc21	0.23
CC[C@@H]1[C@H]2C3C(=O)N(CC)C(=O)C3CC(=O)[C@H]2[C@H](c2ccc(C)cc2)N1S(=O)(=O)c1ccc(C)cc1 (some centres not stated)	0.514
CC=CC(O)C1C=CC2C(=O)N(c3ccccc3)C(=O)C2N1Nc1ccc([N+](=O)[O-])cc1 (configuration not stated)	0.224
COC(=O)[C@]1(CCS(=O)(=O)c2ccccc2)N=C(c2ccc(OCCCO)cc2)O[C@@H]1c1ccccc1CN=[N+]=[N-]	0.738

Please state, for each entry, its recorded composite z-score.
1. C[C@]12C(=O)N(CCCCCCO)[C@@H]3C(=O)N(c4ccc(Cl)cc4)CC=CC31O[C@@H]1/C=C\CCCOC(=O)C12 (some centres not stated)
2. O=C1O[C@@H](c2ccccc2)[C@@H](c2ccccc2)N2[C@@H](c3ccccc3OCCO)[C@]3(C(=O)Nc4ccc(C#CCCO)cc43)[C@@H](C(=O)Nc3nc4ccccc4s3)[C@H]12
3. CC(C)C[C@@H]1NC(=O)[C@H]2C[C@@H](C(=O)NCCCCCC[N+](C)(C)C)[C@@H](c3cccc(OCCO)c3)N2C1=O

Result:
1. 0.128
2. 1.36
3. 1.75
